# target.desc: T1, 4H2078-AA
# T1 chain: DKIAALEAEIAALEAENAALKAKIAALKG
# protocol.summary: two-hybrid library CCmax;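 further: natural log of median RNA to DNA barcode read ratio; higher means stronger binding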
# condition.set: mean of both orientations
Collected interaction score values appear next to each entry.
Please give the numeric answer without any surrounding text.

>  <binder>
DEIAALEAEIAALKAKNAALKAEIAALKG [4H122-AA]

>  <interaction score>
2.3

$$$$
>  <binder>
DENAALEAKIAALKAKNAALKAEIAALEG [4H1401-AA]

>  <interaction score>
1.93

$$$$

Continue with the binder presented below.
# input Give interaction score for the following binder: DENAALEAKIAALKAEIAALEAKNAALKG [4H1352-AA]
# output -1.18
